tested on: K4 kissing-loop RNA reporter; experiment: apparent KD of K4 kissing-loop reporter; higher = weaker reporter binding; details: Eterna round: R107; input ligand: tryptophan 2.4 mM;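 further: bound reporter read as fluorescence of individual clusters on recovered sequencing chips by microscopy, with normalized cluster intensities fitted with a binding model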
Task for the reader: assign each of the following sequences its reported apparent KD of K4 kissing-loop reporter.
Numbers only, in nM.

Solved cases below.
AAUAAAAUCACGGCCGCCACUGGUACUAGUAUUAGCAGUGAUGUUGCUAUGUAUAAUUUAUUAAAUAGGACCGGGUGAAUAUUUA [#27 K4 Tryptophan B Exclusion]	208
GUUACGCAUGGAAGGAGCGCUCUCCGGUUGAUUGACACAGUGAUGUUGUGAUUCUACCGUAAGCAGGUAGGUCGCCAUGUGUAAC [Ex Arginine B K4 13]	921
CGAGUGAUGUUCGUUCGUUUAUUUGGGUGACAGGAUAUGCGGAAACGCAGAAGGGUCACCUUCGGGUUACCCGAAUUAACGUUAU [#09 K4 FMN A Exclusion]	717
AAGCAUUGGUCUGAUACCAGUUGAUGACGAAUACGUCAACUGGAGUGAUGUUCCUAAAACAACCCUUGGCAGCAGACCGAUGCAA [MAT - Same State Theophlline B - Mod of Eli - D2]	838

Now examine the next entry.
Could you share which apparent KD of K4 kissing-loop reporter value was measured for UACGCUGCCUGAGGAUAUAGAAACGAGUGAUGUUCGUGGAUAAGAGCCAGUGAUGUUGGGUUAUUUCUAGAAGGCAGGUAAAGUA [Exclusion FMN B GF6] ?
100
